All figures here come from patent US20230312721A1.

- study system: T1, 4Ig human B7-H3 (human, UniProt Q5ZPR3 29-466, limits assumed)
- T1 construct: Soluble analyte in SPR; also called 4Ig-B7H3; 4Ig B7H3
- T1 sequence: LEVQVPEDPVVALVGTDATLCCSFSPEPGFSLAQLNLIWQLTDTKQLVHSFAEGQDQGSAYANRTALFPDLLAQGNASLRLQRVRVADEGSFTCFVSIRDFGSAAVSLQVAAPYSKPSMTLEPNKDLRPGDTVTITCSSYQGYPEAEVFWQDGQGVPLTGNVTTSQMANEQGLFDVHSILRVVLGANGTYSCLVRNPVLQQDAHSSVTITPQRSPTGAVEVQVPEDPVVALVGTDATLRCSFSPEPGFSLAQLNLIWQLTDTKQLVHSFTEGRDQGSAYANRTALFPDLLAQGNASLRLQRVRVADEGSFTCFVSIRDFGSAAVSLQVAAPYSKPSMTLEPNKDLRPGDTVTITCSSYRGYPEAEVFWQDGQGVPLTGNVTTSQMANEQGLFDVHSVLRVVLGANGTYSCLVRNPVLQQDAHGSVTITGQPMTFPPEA
- procedure details: SPR, Carterra LSA; antibody captured on anti-human Fc lawn, 4Ig human B7-H3 as analyte
- Description: Chimeric and humanized antibodies were generated using CDR grafting methods using closely homologous human germline sequences. Six different humanized VH and four humanized VL sequences were combined to generate 24 different humanized IgG1 antibodies. […] Antibodies were buffer exchanged into PBS and quantified by OD280 and titer was calculated. […] Area % of each peak is calculated based on total area of the peaks. Peak symmetry is calculated to determine the peak fronting (<1) or tailing (>1). […]
Reported koff values for a set of binders
Dear colleague, please send the value followed by its unit.

Problem: Return koff (reported value) for this binder: L3H3 (antibody, human IgG1, kappa, V domains shown, Humanized IgG1, HEK293; chains tied by the L/H names; also called YB8 L3 + YB8 H3) VH: QVQLVQSGAEVKKPGASVKVSCKASGYTFTNYDINWVRQATGQGLEWMGWIFPGDGSTQYNEKFKGRVTLTRNTSISTAYMELSSLRSEDTAVYFCARQTTATWFAYWGQGTLVTVSS VL: EIVMTQSPDFQSVTPKEKVTLTCRASQSISDYLHWYQQKPDQSPKLLIKYASQSISGVPSRFSGSGSGSDFTLTINSLEAEDAGVYYCQNGHSFPLTFGQGTKLEIKR
Solution: 0.00032 s⁻¹
